Entry source: paper PMC5078989

Test system: panel of cancer cell lines
Experiment: Cell viability (CellTiter-Glo) dose-response across cancer cell line panel;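 further: after 72 h compound incubation with CellTiter-Glo ATP readout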
Format: cell-based, human
Conditions: Homo sapiens, GP2d
Kindly supply the reported EC50 values for the records listed here.
Answers are plain numbers, in µM.

- molecule: "CC(C)C[C@H](NC(=O)[C@H](Cc1ccccc1)NC(=O)c1cnccn1)B(O)O [Bortezomib]"
  unit.label: "µM"
  value: 0.0147

Challenge: Find the recorded EC50 belonging to NS(=O)(=O)OC[C@@H]1C[C@@H](n2ccc3c(N[C@H]4CCc5ccccc54)ncnc32)C[C@@H]1O [MLN4924] and report it.
Response given: 0.759

###

Target: human MMP2 (Homo sapiens)
Construct: human MMP2 (Uniprot P08253), amino acids 1–660; made in house; host or cells: insect cells (baculovirus)
Sequence (P08253 30-660): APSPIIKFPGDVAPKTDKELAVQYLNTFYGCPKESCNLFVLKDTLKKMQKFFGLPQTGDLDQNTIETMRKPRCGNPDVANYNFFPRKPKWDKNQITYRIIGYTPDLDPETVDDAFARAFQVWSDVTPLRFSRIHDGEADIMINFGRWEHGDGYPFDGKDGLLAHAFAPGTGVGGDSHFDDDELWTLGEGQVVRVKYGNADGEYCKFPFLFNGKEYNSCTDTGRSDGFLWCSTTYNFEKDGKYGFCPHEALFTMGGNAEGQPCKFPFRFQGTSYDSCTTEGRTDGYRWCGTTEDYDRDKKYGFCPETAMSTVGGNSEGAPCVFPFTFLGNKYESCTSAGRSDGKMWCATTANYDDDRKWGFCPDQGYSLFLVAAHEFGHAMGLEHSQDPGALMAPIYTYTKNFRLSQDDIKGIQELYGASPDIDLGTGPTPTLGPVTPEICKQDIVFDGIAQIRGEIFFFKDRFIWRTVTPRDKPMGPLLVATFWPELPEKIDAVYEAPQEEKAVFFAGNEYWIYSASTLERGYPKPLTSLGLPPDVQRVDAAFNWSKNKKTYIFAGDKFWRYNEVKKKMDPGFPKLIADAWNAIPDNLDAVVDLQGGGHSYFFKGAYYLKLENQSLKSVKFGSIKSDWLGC
Assay: Selectivity assay MMP2
Format: biochemical
quantity: pIC50
Numbers only, as −log10 of the molar value.

Challenge: Find the recorded pIC50 belonging to COCc1ccccc1NCc1ccc([C@H]2[C@@H](O)CCCc3cncn32)c(-c2ccccc2Cl)c1 and report it.
Response given: 4.05
